- tgt: T1, HER3-ECD-Fc (human, UniProt P21860 20-643, limits assumed)
- T1 construct: extracellular domain; also called HER3-FC; HER3-IgG
- test protocol: radioligand blocking assay: antibody pre-bound to captured HER3-ECD-Fc, then 125I-HRG added; bound counts as % of control
Below, each entry is listed with its recorded IC50 (read off the curve).

Worked examples follow.
binder: D1.5-115, mIgG2A (antibody, V domains shown) VH: EVQLVESGGGLVQPGGSLRLSCAASGFTFTGNWIHWVRQAPGKGLEWVGEISPSGGYTDYADSVKGRFTISADTSKNTAYLQMNSLRAEDTAVYYCARESRVSYEAAMDYWGQGTLVTVSS VL: DIQMTQSPSSLSASVGDRVTITCRASQEIFPDVAWYQQKPGKAPKLLIYSASSLYSGVPSRFSGSGSGTDFTLTISSLQPEDFATYYCQQAAPTPYTFGQGTKVEIKR
IC50 (read off the curve): ~3 nM
--
binder: D1.5-113, mIgG2A (antibody, V domains shown) VH: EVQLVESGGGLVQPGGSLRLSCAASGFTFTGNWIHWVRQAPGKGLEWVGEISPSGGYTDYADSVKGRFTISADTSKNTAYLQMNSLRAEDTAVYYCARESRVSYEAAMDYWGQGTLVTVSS VL: DIQMTQSPSSLSASVGDRVTITCRASQSLLASHDGTPWVAWYQQKPGKAPKLLIYDASYLYSGVPSRFSGSGSGTDFTLTISSLQPEDFATYYCQQSTFAPYTFGQGTKVEIKR
IC50 (read off the curve): ~3 nM
--
binder: D1.5-116, mIgG2A (antibody, V domains shown) VH: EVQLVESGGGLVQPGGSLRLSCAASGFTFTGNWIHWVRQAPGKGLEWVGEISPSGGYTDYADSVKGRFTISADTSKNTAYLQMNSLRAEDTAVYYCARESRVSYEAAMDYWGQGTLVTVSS VL: DIQMTQSPSSLSASVGDRVTITCRASQAIASDVAWYQQKPGKAPKLLIYSASFLYSGVPSRFSGSGSGTDFTLTISSLQPEDFATYYCQQSEPEPYTFGQGTKVEIKR
IC50 (read off the curve): ~4 nM

Proceeding to the next binder to report its IC50 (read off the curve).
[Q] Fill in: IC50 (read off the curve) of D1.5-121, mIgG2A (antibody, V domains shown) VH: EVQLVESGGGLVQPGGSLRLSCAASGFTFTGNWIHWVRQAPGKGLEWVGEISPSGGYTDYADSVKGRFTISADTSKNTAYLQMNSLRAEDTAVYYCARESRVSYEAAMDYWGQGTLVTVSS VL: DIQMTQSPSSLSASVGDRVTITCRASQDVGSDLAWYQQKPGKAPKLLIYSASYLYSGVPSRFSGSGSGTDFTLTISSLQPEDFATYYCQQSDPEPYTFGQGTKVEIKR is ___
[A] ~5 nM
